assay-notes: AUC last in CD-1 mouse at 1 mg/kg, po measured for 0.5 to 24 hrs by LC-MS/MS analysis
Type: ADME, organism-based
Set-up: dose 1 mg/kg, time 0.5-24 hrs, route po
details: in vivo
property: AUC(0-t) (ng·h/mL)
All answers are understood in ng·h/mL, so give the number only.

-- ask Fill in: AUC(0-t) of COc1cc(NC(C(=O)c2c[nH]c3cc(OC)c(C)cc23)c2ccc(Cl)cc2OC)cc(OCCO)c1 (single isomer, unassigned; (+)) is ___
-- reply 872

---

assay-notes: Cytotoxicity against african green monkey Vero cells by ATPlite cell viability luminescence assay
Assay type: toxicity, cell-based
details: chlorocebus sabaeus
Returns: string. Value is t if measured CC50 is below 8 µM, and f if it is greater than or equal to it.

-- ask API: query returns whether the compound falls strictly under 8 µM in CC50. Query: COc1cc(NC(C(=O)c2c[nH]c3cc(Cl)ccc23)c2ccc(F)cc2OC)cc(OCCO)c1 (stereo not drawn)
-- reply t

-- ask API: query returns whether the compound falls strictly under 8 µM in CC50. Query: COc1cc(NC(C(=O)c2c[nH]c3c(C)c(Cl)ccc23)c2ccc(F)cc2OC)cc(OCCO)c1 (single isomer, unassigned; (+))
-- reply t

-- ask API: query returns whether the compound falls strictly under 8 µM in CC50. Query: COc1cc(NC(C(=O)c2c[nH]c3c(C)c(OC)ccc23)c2ccc(F)cc2OC)cc(OCCO)c1 (single isomer, unassigned; (+))
-- reply f

-- ask API: query returns whether the compound falls strictly under 8 µM in CC50. Query: COc1cc(NC(C(=O)c2c[nH]c3ccccc23)c2ccccc2)cc(OCCO)c1 (stereo not drawn)
-- reply f

-- ask API: query returns whether the compound falls strictly under 8 µM in CC50. Query: COc1cc(NC(C(=O)c2c[nH]c3c(F)c(F)ccc23)c2ccc(F)cc2OC)cc(OCCO)c1 (stereo not drawn)
-- reply t

-- ask API: query returns whether the compound falls strictly under 8 µM in CC50. Query: COc1cc(NC(C(=O)c2c[nH]c3c(Cl)c(OC)ccc23)c2ccc(F)cc2OC)cc(OCCO)c1 (stereo not drawn)
-- reply f

-- ask API: query returns whether the compound falls strictly under 8 µM in CC50. Query: COc1cc(NC(C(=O)c2c[nH]c3ccc(F)cc23)c2ccc(F)cc2)cc(OCCO)c1 (stereo not drawn)
-- reply f
